Values were extracted from the supplement of paper PMC10949913.

Property: area under concentration-response curve; scope: individual molecules
- Test system: CU-ACC2
- procedureSummary: area under concentration-response curve (viability) (AUC (a.u.)); higher = less active
- conditionInfo: 48 h
measuredQuantity: area under concentration-response curve

molecule=Cc1nnc(N[S+](=O)([O-])c2ccc(N)cc2)s1 measurementtarget=CU-ACC2 measuredquantity="area under concentration-response curve" recordedvalue=591
molecule=CCCNC(=O)Nc1ccc(Oc2ncnc3cc(OC)c(OC)cc23)cc1Cl measurementtarget=CU-ACC2 measuredquantity="area under concentration-response curve" recordedvalue=383
molecule=Oc1ccc(-c2nc(-c3ccncc3)c(-c3ccc(F)cc3)[nH]2)cc1 measurementtarget=CU-ACC2 measuredquantity="area under concentration-response curve" recordedvalue=574
molecule=CN1CCN(CCOc2cc(OC3CCOCC3)c3c(Nc4c(Cl)ccc5c4OCO5)ncnc3c2)CC1 measurementtarget=CU-ACC2 measuredquantity="area under concentration-response curve" recordedvalue=548
molecule=CC(C)[C@H]1C(=O)N[C@H](CO)Cc2c[nH]c3cccc(c23)N1C measurementtarget=CU-ACC2 measuredquantity="area under concentration-response curve" recordedvalue=539
molecule=CC[C@@H](Oc1cccc(CN(CCCOc2ccc(OC)cc2)c2nc3ccccc3o2)c1)C(=O)O measurementtarget=CU-ACC2 measuredquantity="area under concentration-response curve" recordedvalue=571
molecule=CNC(=O)CN1CCC(Oc2cc3c(Nc4cccc(Cl)c4F)ncnc3cc2OC)CC1 measurementtarget=CU-ACC2 measuredquantity="area under concentration-response curve" recordedvalue=572
molecule=COc1ccc(-c2cc3nccn3c(Nc3ncccc3C(N)=O)n2)cc1OC measurementtarget=CU-ACC2 measuredquantity="area under concentration-response curve" recordedvalue=415
molecule=COc1cc2c(NC3CCN(C4CCCCC4)CC3)nc(N3CCCN(C(C)C)CC3)nc2cc1OCCCN1CCCCC1 measurementtarget=CU-ACC2 measuredquantity="area under concentration-response curve" recordedvalue=562
molecule="COC1CCC(C(=O)c2ccc3nc4c(cc3c2)CCCO4)CC1 (stereo not drawn)" measurementtarget=CU-ACC2 measuredquantity="area under concentration-response curve" recordedvalue=501
molecule=COc1cc2c(Oc3ccc4[nH]c(C)cc4c3F)ncnc2cc1OCCCN1CCCC1 measurementtarget=CU-ACC2 measuredquantity="area under concentration-response curve" recordedvalue=566
molecule=COc1ccc(-c2ccc3c(N4CCOC[C@@H]4C)nc(N4CCOC[C@@H]4C)nc3n2)cc1CO measurementtarget=CU-ACC2 measuredquantity="area under concentration-response curve" recordedvalue=485
molecule=CC(C)NC[C@@H](C(=O)N1CCN(c2ncnc3c2[C@H](C)C[C@H]3O)CC1)c1ccc(Cl)cc1 measurementtarget=CU-ACC2 measuredquantity="area under concentration-response curve" recordedvalue=555
molecule=CCCc1c(OCCCOc2ccc(OCC(=O)O)cc2)ccc(C(C)=O)c1O measurementtarget=CU-ACC2 measuredquantity="area under concentration-response curve" recordedvalue=607
molecule=CNC(=O)c1ccccc1Nc1nc(Nc2ccc3c(c2OC)CCC[C@@H](N2CCN(CCO)CC2)C3)ncc1Cl measurementtarget=CU-ACC2 measuredquantity="area under concentration-response curve" recordedvalue=644
molecule=O=S(=O)([O-])CCS measurementtarget=CU-ACC2 measuredquantity="area under concentration-response curve" recordedvalue=518
molecule=Cc1n[nH]c2ccc(-c3cncc(OC[C@@H](N)Cc4ccccc4)c3)cc12 measurementtarget=CU-ACC2 measuredquantity="area under concentration-response curve" recordedvalue=342
molecule=Cc1cc(C)c(/C=C2\C(=O)Nc3ccccc32)[nH]1 measurementtarget=CU-ACC2 measuredquantity="area under concentration-response curve" recordedvalue=559
molecule=O=C(CBr)N1CC([N+](=O)[O-])([N+](=O)[O-])C1 measurementtarget=CU-ACC2 measuredquantity="area under concentration-response curve" recordedvalue=464
molecule=COc1cccc2c1C(=O)c1c(O)c3c(c(O)c1C2=O)C[C@@](O)(C(=O)CO)C[C@@H]3O[C@H]1C[C@H](N)[C@H](O)[C@H](C)O1 measurementtarget=CU-ACC2 measuredquantity="area under concentration-response curve" recordedvalue=485
molecule=O=[N+]([O-])c1ccc(Nc2ccccc2-c2ccccc2)c2nonc12 measurementtarget=CU-ACC2 measuredquantity="area under concentration-response curve" recordedvalue=467
molecule=CCC(=O)O[C@@]1(CC[C@H]2[C@@H]3CCC/4=C/C(=O)CC[C@]4(C)[C@H]3CC[C@]12C)C(=O)CO measurementtarget=CU-ACC2 measuredquantity="area under concentration-response curve" recordedvalue=585
molecule=OC[C@H]1O[C@H](C[C@@H]1O)N2\C=C(F)/C(=O)NC2=O measurementtarget=CU-ACC2 measuredquantity="area under concentration-response curve" recordedvalue=584
molecule="COc1ccnc(C[S+]([O-])c2nc3cc(OC(F)F)ccc3[nH]2)c1OC (stereo not drawn)" measurementtarget=CU-ACC2 measuredquantity="area under concentration-response curve" recordedvalue=585
molecule=N#Cc1c(N(CC(=O)[O-])CC(=O)[O-])sc(C(=O)[O-])c1CC(=O)[O-] measurementtarget=CU-ACC2 measuredquantity="area under concentration-response curve" recordedvalue=544
molecule=COC/1=C/C=C2\C(=C/C1=O)[C@H](CCC3=CC(=C(OC)C(=C23)OC)OC)NC(C)=O measurementtarget=CU-ACC2 measuredquantity="area under concentration-response curve" recordedvalue=548
molecule=C[C@@H]1CN[C@H]2[C@@H](C)[C@@]3(CC[C@H]4[C@@H]5CC[C@@H]6C[C@@H](CC[C@]6(C)[C@H]5C\C4=C(C)\C3)N[S+](C)([O-])=O)O[C@@H]2C1 measurementtarget=CU-ACC2 measuredquantity="area under concentration-response curve" recordedvalue=539
molecule=N#Cc1cc2cc(CN3CCC(Nc4ncnc5sc(CC(F)(F)F)cc45)CC3)c(O)cc2n1Cc1cn[nH]c1 measurementtarget=CU-ACC2 measuredquantity="area under concentration-response curve" recordedvalue=565

---

- Test system: NCI-H295R
- procedureSummary: area under concentration-response curve (viability) (AUC (a.u.)); higher = less active
- conditionInfo: 48 h
Property: area under concentration-response curve; scope: individual molecules
measuredQuantity: area under concentration-response curve

smilesnotation=CCC1=C(C)CN(C(=O)NCCc2ccc(S(=O)(=O)NC(=O)N[C@H]3CC[C@H](C)CC3)cc2)C1=O measurementtarget=NCI-H295R measuredquantity="area under concentration-response curve" recordedvalue=559
smilesnotation=CSc1ccc(C(=O)/C=C/c2cc(C)c(OC(C)(C)C(=O)O)c(C)c2)cc1 measurementtarget=NCI-H295R measuredquantity="area under concentration-response curve" recordedvalue=571
smilesnotation=CC(C)NC(=O)N1CC[C@@H](C1)NC/2=N/C3=C(C=CC(=C3)F)N(CC(F)F)C4=C2C=C(Cl)C=C4 measurementtarget=NCI-H295R measuredquantity="area under concentration-response curve" recordedvalue=580
smilesnotation=COC1=CC(=C2C(=O)N(COC/3=C/C(=O)N4\C=C/C=C(OCCN5CCCCC5)\C4=N3)[S+]([O-])(=O)C2=C1)C(C)C measurementtarget=NCI-H295R measuredquantity="area under concentration-response curve" recordedvalue=541

---

- System: NCI-H295R
- procedureSummary: area under concentration-response curve (viability) (AUC (a.u.)); higher = less active
- conditionInfo: 48 h
Label rule, in plain words: area under concentration-response curve of 500 and up is Y, under 500 is N.

smilesnotation=C=CC(=O)N1CC[C@@H](Oc2nc(Nc3ccc(N4CCC(N5CCN(C)CC5)CC4)cc3)c(C(N)=O)nc2CC)C1 assignedcategory=Y
smilesnotation=CN(C)c1ccccc1CN1CCCN(Cc2ccccc2N(C)C)C1c1ccncc1 assignedcategory=N
smilesnotation=CC1(C)O[C@@H]2C[C@H]3[C@@H]4CCC/5=C/C(=O)/C=C\[C@]5(C)[C@@]4(F)[C@@H](O)C[C@]3(C)[C@@]2(O1)C(=O)CO assignedcategory=Y
smilesnotation=CN(C)Cc1cccc(N/C(=C2\C(=O)Nc3cc(C(=O)N(C)C)ccc32)c2ccccc2)c1 assignedcategory=Y
smilesnotation=COc1ncc(-c2ccc3c(Nc4cc(Oc5cc(F)cc(F)c5)cc(C(=O)O)c4)c([S+](=O)([O-])NC4CC4)cnc3c2)c(OC)n1 assignedcategory=Y
smilesnotation=C[C@@H]1O[C@@H](O[C@@H]2C=C3CC[C@@H]4[C@H](CC[C@]5(C)[C@@H](c6ccc(=O)oc6)CC[C@]45O)[C@@]3(C)CC2)[C@H](O)[C@H](O)[C@H]1O assignedcategory=N
smilesnotation=O=S(=O)([O-])CCS assignedcategory=Y
smilesnotation=Oc1cc(-c2nc(-c3ccccc3)[nH]c2-c2ccncc2)ccc1Cl assignedcategory=Y
smilesnotation=CC1(C)Cc2c(sc(NC(=S)NC(=O)c3ccccc3)c2C(=O)O)CO1 assignedcategory=Y
smilesnotation=COC(=O)Nc1nc2cc(C(=O)c3ccc(F)cc3)ccc2[nH]1 assignedcategory=N
smilesnotation=O[C@H]1CC[C@@H](Oc2cccc3cnc(Nc4ccc5nc[nH]c5c4)nc23)CC1 assignedcategory=N
smilesnotation=COc1ccc(-c2cc3nccn3c(Nc3ncccc3C(N)=O)n2)cc1OC assignedcategory=N
smilesnotation=Cn1cc(-c2c[nH]c3ncnc(N4CCOCC4)c23)cn1 assignedcategory=Y
smilesnotation=COc1cccc2c1C(=O)c1c(O)c3c(c(O)c1C2=O)C[C@@](O)(C(=O)CO)C[C@@H]3O[C@H]1C[C@H](N)[C@H](O[C@H]2CCCCO2)[C@H](C)O1 assignedcategory=N
smilesnotation=C[C@@H]1C\C2=C(CCC(=O)C2)/[C@H]3CC[C@@]4(C)[C@@H](CC[C@@]4(O)C#C)[C@H]13 assignedcategory=Y
smilesnotation=Nc1nc(N)nc(-c2cc(Cl)ccc2Cl)n1 assignedcategory=N
smilesnotation=COc1cc(C(=O)N2CCC(N3CCN(C)CC3)CC2)ccc1Nc1ncc2c(n1)N(C)c1ccccc1C(=O)N2C assignedcategory=N
smilesnotation=Nc1ncnc2nc(-c3ccc(N4CCOCC4)nc3)cc(-c3cccc(Br)c3)c12 assignedcategory=N
smilesnotation=NC(=O)c1cccnc1 assignedcategory=Y
smilesnotation=CCCCNc1ncc(-c2ccc(CN3CCOCC3)cn2)c(N[C@H]2CC[C@H](O)CC2)n1 assignedcategory=Y
